- METHOD NOTES: Clearance in human liver microsomes at 1 uM measured after 60 mins by HPLC analysis
- TEST SETTINGS: liver microsomes
Tick 1.0 if microsomal CLint at 1 h, 1 µM is 30 µL/min/mg or greater. Tick 0.0 if microsomal CLint at 1 h, 1 µM is less than 30 µL/min/mg.

MOLECULE	ASSIGNED LABEL
CCOC(=O)[C@H](CCc1ccccc1)N[C@@H](C)C(=O)N1Cc2ccccc2C[C@H]1C(=O)O	0.0

Incoming: Decide: microsomal CLint at 1 h, 1 µM of COC(=O)[C@@H]1CC2=CC(=O)CC[C@]2(C)[C@@]23O[C@@H]2C[C@@]2(C)[C@@H](CC[C@@]24CCC(=O)O4)[C@H]13 [EPLERENONE] >= 30 µL/min/mg?
Outgoing: 0.0

Incoming: Next molecule: CCOC(=O)[C@H](CCc1ccccc1)N[C@H]1CS[C@H](c2cccs2)CN(CC(=O)O)C1=O [TEMOCAPRIL]
Outgoing: 1.0

Incoming: Next molecule: CCOC(=O)C1(c2ccccc2)CCCN(C)CC1 (stereo unspecified) [ETHOHEPTAZINE]
Outgoing: 0.0

====

- METHOD NOTES: Clearance in human liver microsomes at 1 uM measured after 60 mins by HPLC analysis
- TEST SETTINGS: liver microsomes
VALUE TYPE: microsomal CLint at 1 h, 1 µM (µL/min/mg)
Return type: number; implicit unit µL/min/mg.

Recorded microsomal CLint at 1 h, 1 µM, per entry:
> print(dat)
                                   compound  reported.result
1  COC(=O)C(c1ccccc1)C1CCCCN1 (stereo not drawn) [METHYLPHENIDATE]             11.1
2  CC[C@]12CCCN3CCc4c(n(c5ccccc45)[C@@](O)(C(=O)OC)C1)[C@@H]32               66
3   CCOC(=O)c1ncn2c1CN(C)C(=O)c1cc(F)ccc1-2             10.6
4  CCC[C@H](N[C@@H](C)C(=O)N1[C@H](C(=O)O)C[C@@H]2CCCC[C@@H]21)C(=O)OCC             10.7

Proceeding to the next compound to report its microsomal CLint at 1 h, 1 µM.
Incoming: Please look up its microsomal CLint at 1 h, 1 µM: `CCOC(=O)[C@H](CCc1ccccc1)N[C@@H](C)C(=O)N1[C@H](C(=O)O)C[C@@H]2CCC[C@@H]21`
Outgoing: 46.1

====

- METHOD NOTES: Clearance in human liver microsomes at 1 uM measured after 60 mins by HPLC analysis
- TEST SETTINGS: liver microsomes
Listed here are molecules together with their documented microsomal CLint at 1 h, 1 µM.
Return type: number; implicit unit µL/min/mg.

MOLECULE	microsomal CLint at 1 h, 1 µM [µL/min/mg]
COC(=O)C1=C(C)NC(C)=C(C(=O)OCCN2CCN(C(c3ccccc3)c3ccccc3)CC2)C1c1cccc([N+](=O)[O-])c1 (centres undefined) [MANIDIPINE 6300]	93.4

Proceeding to the next molecule to report its microsomal CLint at 1 h, 1 µM.
Incoming: Please look up its microsomal CLint at 1 h, 1 µM: COC(=O)C1=C(C)NC(C)=C(C(=O)OC(C)(C)CN(C)CCC(c2ccccc2)c2ccccc2)C1c1cccc([N+](=O)[O-])c1 (centres undefined) [LERCANIDIPINE]
Outgoing: 125

====

- METHOD NOTES: Clearance in human liver microsomes at 1 uM measured after 60 mins by HPLC analysis
- TEST SETTINGS: liver microsomes
VALUE TYPE: microsomal CLint at 1 h, 1 µM (µL/min/mg)
Return type: number; implicit unit µL/min/mg.

Recorded microsomal CLint at 1 h, 1 µM, per entry:
> print(dat)
                                   molecule  reported.result
1  CC1=C(C(=O)OC(C)C)C(c2cccc([N+](=O)[O-])c2)C(C(=O)OC2CN(C(c3ccccc3)c3ccccc3)C2)=C(N)N1 (configuration not stated)             33.9
2       CCOC(=O)c1c(N)sc2c1CCN(Cc1ccccc1)C2             71.2
3  CCOC(=O)C1=C(C)NC(C)=C(C(=O)OCC)C1c1ccccc1/C=C/C(=O)OC(C)(C)C             99.2
4  COC(=O)C1=C(C#N)NC(C)=C(C(=O)OC(C)C)C1c1cccc([N+](=O)[O-])c1 (configuration not stated)              205
5  COC(=O)[C@H]1[C@H]2C[C@@H]3c4[nH]c5cc(OC)ccc5c4CCN3C[C@H]2C[C@@H](OC(=O)c2cc(OC)c(OC)c(OC)c2)[C@@H]1OC             18.3
6  CCOC(=O)[C@H](CCc1ccccc1)N[C@H]1CCc2ccccc2N(CC(=O)O)C1=O             52.5
7  CCOC(=O)C1=C(C)NC(C)=C(C(=O)OC)C1c1cccc([N+](=O)[O-])c1 (configuration not stated)              166
8  CCOC(=O)/C=C1\SC(N2CCCCC2)C(=O)N1C (configuration not stated)             20.5

Incoming: Please look up its microsomal CLint at 1 h, 1 µM: `COC(=O)[C@@H]1[C@H]2C[C@H]3c4[nH]c5ccccc5c4CCN3C[C@@H]2CC[C@@H]1O`
Outgoing: 34.4

====

- METHOD NOTES: Clearance in human liver microsomes at 1 uM measured after 60 mins by HPLC analysis
- TEST SETTINGS: liver microsomes
VALUE TYPE: microsomal CLint at 1 h, 1 µM

Incoming: Please look up its microsomal CLint at 1 h, 1 µM: COC(=O)C1=C(C)NC(C)=C(C(=O)OCC(C)C)C1c1ccccc1[N+](=O)[O-] (stereo not drawn)
Outgoing: > 300 µL/min/mg

Incoming: Next compound: `CCOC(=O)[C@H](CCc1ccccc1)N[C@@H](C)C(=O)N1CC2(C[C@H]1C(=O)O)SCCS2`
Outgoing: < 8 µL/min/mg

Incoming: Next compound: `CCOC(=O)[C@H](CCc1ccccc1)N[C@@H](C)C(=O)N1Cc2cc(OC)c(OC)cc2C[C@H]1C(=O)O`
Outgoing: < 8 µL/min/mg

====

- METHOD NOTES: Clearance in human liver microsomes at 1 uM measured after 60 mins by HPLC analysis
- TEST SETTINGS: liver microsomes
VALUE TYPE: microsomal CLint at 1 h, 1 µM

Recorded microsomal CLint at 1 h, 1 µM, per entry:
> print(dat)
                                   compound  reported.result
1  CCOC(=O)COc1ccc2c(C)c(CCN(CC)CC)c(=O)oc2c1 [CHROMONAR]  > 300 µL/min/mg
2  CCOC(=O)COc1ccc2c(=O)cc(-c3ccccc3)oc2c1 [EFLOXATE]  > 300 µL/min/mg

Proceeding to the next compound to report its microsomal CLint at 1 h, 1 µM.
Incoming: Please look up its microsomal CLint at 1 h, 1 µM: COCCOC(=O)C1=C(C)NC(C)=C(C(=O)OC(C)C)C1c1cccc([N+](=O)[O-])c1 (stereo not drawn) [NIMODIPINE]
Outgoing: > 300 µL/min/mg
